tested on: CAL-148; conditions: 72 h
Friendly reminder: EC50, CellTox Green below 30 nM is YES, at or above is NO.

INSERT INTO measurements (compound, answer_label) VALUES
  ('O=[N+]([O-])c1ccc2c(c1)S(=O)(=O)C=C2', 'NO'),
  ('Nc1ccn([C@@H]2O[C@H](CO)[C@@H](O)C2(F)F)c(=O)n1', 'YES'),
  ('C=CCn1c(=O)c2cnc(Nc3ccc(N4CCN(C)CC4)cc3)nc2n1-c1cccc(C(C)(C)O)n1', 'NO'),
  ('CCN(CC)CCCC(C)Nc1ccnc2cc(Cl)ccc12 (stereo not given)', 'NO');

All values here come from the supplement of paper PMC4862054.
